# credit: PubChem BioAssay AID248

Give measured T/C for each item. Keep answers brief.
# Tested on: L1210 leukemia ip in BDF1 mice, survival T/C
# PROTOCOL_TEXT: NCI In Vivo Anticancer Drug Screen. Data for tumor model L1210 Leukemia (intraperitoneal) in B6D2F1 (BDF1) mice
# DETAILS: endpoint: mean survival time; dose: 75.0 mg/kg/injection; schedule: Q01DX001 (ip); vehicle: other; higher = longer survival
# Method: The antitumor activity of compounds was measured in mice bearing transplantable tumors. Survival or tumor size were measured and the results are expressed as the measurement made in the treated group (T) divided by the measurement made in the vehicle treated control group (C). The tumor model used in this assay is L1210 Leukemia (intraperitoneal) in B6D2F1 (BDF1) mice
Toxic doses and inconclusive results are not listed.

Consider the molecule O=NN(CCCl)C(=O)NC1C=CCCC1 (stereo unspecified) and give its measured T/C.
173 % of control

Would you mind telling me what T/C value was observed for Nc1nc(Cl)nc2c1ncn2Cc1ccccc1 ?
119 % of control

Name the reported T/C value associated with the molecule OC1CC(c2ccccc2)C1(c1ccccc1)c1ccccc1 (stereo unspecified)
104 % of control

Which T/C is listed for Cc1cc(NCCN(C(C)C)C(C)C)nc(/N=C(\N)Nc2ccc(Cl)c(Cl)c2)n1 ?
94 % of control

Consider the molecule shown here: CC(C)C1=CC23CCC4C(C)(C(=O)Cl)CCCC4(C)C2CC1C1(Cl)C(=O)OC(=O)C31Cl (stereo unspecified) What is its recorded T/C?
94 % of control

Sample Cc1cc2c(c(Cl)n1)C(=O)OC2=O — what was its T/C?
95 % of control
